tested on: NMDA receptor; assay: [3H]MK-801 displacement radioligand binding, rat forebrain membranes
MEASURE NAME: NMDA receptor binding / affinity (in words)

{"MOLECULE": "CCCCCCC(C)(C)c1cc(O)c2c(c1)OC(C)(C)[C@H]1CC=C(Cn3cccn3)C[C@H]21 [211,220-000]", "SYSTEM": "NMDA receptor", "RESULT": "relatively high affinity"}
{"MOLECULE": "CCCCCCC(C)(C)c1cc(O)c2c(c1)OC(C)(C)C1CC=C(Cn3ccnc3)CC21.Cl (single isomer, unassigned; (+)) [211,095-000]", "SYSTEM": "NMDA receptor", "RESULT": "relatively high affinity"}
